// growth inhibition by drug plus 177Lu-lilotomab satetraxetan lookup, one value per entry
# System: U-2932
# assay_protocol: growth inhibition by drug plus 177Lu-lilotomab satetraxetan (1 - RLU/untreated control) (fraction); higher = stronger inhibition
# condition_label: 10 nM; time (day): 6; 177Lu-lilotomab satetraxetan 1 ug/ml
value_kind: growth inhibition by drug plus 177Lu-lilotomab satetraxetan

>>> df
                        structure_as_smiles  assay_value
0  CC(=O)Nc1cccc(-n2c(=O)n(C3CC3)c(=O)c3c(Nc4ccc(I)cc4F)n(C)c(=O)c(C)c32)c1        0.234
1  CN1CCN(c2nc(C3=C(c4c[nH]c5ccccc45)C(=O)NC3=O)c3ccccc3n2)CC1        0.293
2             Nc1nc(N)c(N=O)c(OCC2CCCCC2)n1        0.134

meta.source: the supplement of paper PMC6897291
